System: Caco-2 cells
Assay: Caco-2 permeability (bi-directional; pH 7.4/pH 7.4)
Type: in vitro ADME, human
Settings: Caco-2, 10 μM, 120 minutes
PARAMETER: Permeability (apparent permeability, Papp (A-B)) (×10⁻⁶ cm/s)

Take a look at these entries with their results.
MOLECULE	READOUT NUMBER
COCCOCCOCCOCCOCCN1CCN(Cc2ccc(C(=O)Nc3ccc(C)c(Nc4nccc(-c5cccnc5)n4)c3)cc2)CC1 [mPEG5-N′-Imatinib]	1
COCCOCCOCCNCc1ccc(C(=O)Nc2ccc(C)c(Nc3nccc(-c4cccnc4)n3)c2)cc1 [mPEG3-N-Imatinib]	0.6
COCCOCCOCCOCCOCCOCCOCCOCCOCCN1CCN(Cc2ccc(C(=O)Nc3ccc(C)c(Nc4nccc(-c5cccnc5)n4)c3)cc2)CC1 [mPEG9-N′-Imatinib]	0.05

1. COCCOCCOCCOCCOCCNCc1ccc(C(=O)Nc2ccc(C)c(Nc3nccc(-c4cccnc4)n3)c2)cc1 [mPEG5-N-Imatinib]
2. COCCOCCOCCOCCOCCOCCOCCN1CCN(Cc2ccc(C(=O)Nc3ccc(C)c(Nc4nccc(-c5cccnc5)n4)c3)cc2)CC1 [mPEG7-N′-Imatinib]
3. COCCOCCOCCN1CCN(Cc2ccc(C(=O)Nc3ccc(C)c(Nc4nccc(-c5cccnc5)n4)c3)cc2)CC1 [mPEG3-N′-Imatinib]
4. COCCOCCOCCOCCOCCOCCOCCOCCOCCNCc1ccc(C(=O)Nc2ccc(C)c(Nc3nccc(-c4cccnc4)n3)c2)cc1 [mPEG9-N-Imatinib]
// sort entries: Permeability (apparent permeability, Papp (A-B)), high to low State the ranking by listing the labels in the requested order. 3, 2, 1, 4
(3: 4 ×10⁻⁶ cm/s, 2: 0.3 ×10⁻⁶ cm/s, 1: 0.05 ×10⁻⁶ cm/s, 4: 0.01 ×10⁻⁶ cm/s)
